- subject of test: KRAS G13D (Homo sapiens, UniProt P01116, G13D)
- Sequence (P01116 with tags, fused parts or gaps isoform P01116-2 G13D): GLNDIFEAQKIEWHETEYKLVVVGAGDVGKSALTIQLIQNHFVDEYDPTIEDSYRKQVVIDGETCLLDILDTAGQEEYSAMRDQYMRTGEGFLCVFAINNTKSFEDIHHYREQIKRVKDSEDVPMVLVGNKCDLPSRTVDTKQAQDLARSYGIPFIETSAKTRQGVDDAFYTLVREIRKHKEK
- run description: SOS-catalyzed nucleotide exchange assay, KRAS G13D (Procedure A)
- experimental conditions: GNE
Rule for this label: class 1 means IC50 is less than 1 µM; class 0 means IC50 is at least 1 µM.

Worked cases, answers included:
Cc1cc2[nH]ncc2c(-c2nccc3c2sc2nc(OCC4(C#N)CCCO4)nc(N4C[C@H]5CC[C@@H](C4)N5)c23)c1C(F)(F)F (stereo partly drawn): class 0
Cc1cc2[nH]ncc2c(-c2nccc3c4c(N5C[C@H]6CC[C@@H](C5)N6)nc(OC[C@@]56CCCN5C[C@H](F)C6)nc4n(C)c23)c1C(F)F (single isomer, unassigned): class 0
Cc1cc2[nH]ncc2c(-c2nccc3c2sc2nc(OC[C@@]45CCCN4C[C@H](F)C5)nc(N4C5CNCC4C5)c23)c1C(F)(F)F: class 0
F[C@H]1CN2CCC[C@@]2(COc2nc(N3C[C@H]4CC[C@@H](C3)N4)c3c(n2)sc2c(-c4c(C5CC5)c(Cl)cc5[nH]ncc45)nccc23)C1: class 1

## Task I'd appreciate it if you could check whether C#Cc1csc2cc3[nH]ncc3c(-c3nccc4c3sc3nc(OC[C@@]56CCCN5C[C@H](F)C6)nc(N5C[C@H]6CC[C@@H](C5)N6)c34)c12 has IC50 smaller than 1 µM.
## Result class 1

## Task I'd appreciate it if you could check whether C#Cc1c(F)ccc2cc(N)nc(-c3nccc4c5c(N6C[C@H]7CC[C@@H](C6)N7)nc(OC[C@@]67CCCN6C[C@H](F)C7)nc5n(C)c34)c12 has IC50 smaller than 1 µM.
## Result class 0

###

Here the recorded IC50 is given for each entry.
- subject of test: KRAS G12D (Homo sapiens, UniProt P01116, G12D)
- Sequence (P01116 with tags, fused parts or gaps isoform P01116-2 G12D): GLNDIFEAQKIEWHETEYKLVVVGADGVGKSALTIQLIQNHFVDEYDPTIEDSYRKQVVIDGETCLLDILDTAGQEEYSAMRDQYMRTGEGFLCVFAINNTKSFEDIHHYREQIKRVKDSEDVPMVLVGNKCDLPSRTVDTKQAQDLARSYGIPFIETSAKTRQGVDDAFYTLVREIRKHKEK
- run description: SOS-catalyzed nucleotide exchange assay, KRAS G12D (Procedure A)
- Type: biochemical
- experimental conditions: guanine nucleotide exchange (GNE)
Answer with the figure and its unit, nothing else.

C#Cc1c(F)ccc2cc3[nH]ncc3c(-c3nccc4c3sc3nc(OC[C@]5(CN(C)C)CC5(F)F)nc(N5C[C@H]6CC[C@@H](C5)N6)c34)c12: 1.62 nM
C#Cc1c(F)ccc2cc3[nH]ncc3c(-c3nccc4c3sc3nc(OCC5(C(=O)NC)CC5)nc(N5C[C@H]6CC[C@@H](C5)N6)c34)c12: 50.6 nM

// next item, IC50 requested
## Task Using the record for Cc1cc2[nH]ncc2c(-c2nccc3c2sc2nc(OCC4(S(C)(=O)=O)CC4)nc(N4C[C@H]5CC[C@@H](C4)N5)c23)c1C(F)(F)F , state its measured IC50.
## Result 7970 nM

###

- subject of test: KRAS G13D (Homo sapiens, UniProt P01116, G13D)
- run description: SOS-catalyzed nucleotide exchange assay, KRAS G13D (Procedure A)
- experimental conditions: GNE
property label: IC50 (nM)
Response body: numeric value in nM, unit text excluded.

Solved entries:
Cc1cc2[nH]ncc2c(-c2nccc3c2sc2nc(OC[C@@]45CCCN4C[C@H](F)C5)nc(N4[C@@H]5CC[C@H]4CNC5)c23)c1C(F)(F)F [Ex-71]: 2510
C#Cc1cccc2cccc(-c3nccc4c5c(N6C[C@H]7CC[C@@H](C6)N7)nc(OC[C@@]67CCCN6C[C@H](F)C7)nc5n(C)c34)c12 [Ex-9]: 451
Clc1cc2[nH]ncc2c(-c2nccc3c2sc2nc(OCC45CCOC(CO4)C5)nc(N4C[C@H]5CC[C@@H](C4)N5)c23)c1C1CC1 [Ex-22]: 9110
Cc1cc2[nH]ncc2c(-c2nccc3c2sc2nc(OC[C@@]45CCCN4C[C@H](F)C5)nc(NCC4(N(C)C)CCC4)c23)c1C(F)(F)F [Ex-74]: 2880
Cc1cc2[nH]ncc2c(-c2nncc3c2sc2nc(OC[C@@]45CCCN4C[C@H](F)C5)nc(N4C[C@H]5CC[C@@H](C4)N5)c23)c1C(F)(F)F [Ex-77]: 374

## Task Using the record for Cc1cc2[nH]ncc2c(-c2nccc3c2sc2nc(OC[C@@]45CCCN4C[C@H](F)C5)nc(N4C[C@H]5C[C@@H]4CN5)c23)c1C(F)(F)F [Ex-70] , state its measured IC50.
## Result 2260

## Task Using the record for C#Cc1cccc2cc3[nH]ncc3c(-c3nccc4c3sc3nc(OC[C@@]56CCCN5C[C@H](F)C6)nc(N5C[C@H]6CC[C@@H](C5)N6)c34)c12 [Ex-55] , state its measured IC50.
## Result 42.5

###

- subject of test: KRAS WT (Homo sapiens, UniProt P01116)
- Sequence (P01116 with tags, fused parts or gaps isoform P01116-2): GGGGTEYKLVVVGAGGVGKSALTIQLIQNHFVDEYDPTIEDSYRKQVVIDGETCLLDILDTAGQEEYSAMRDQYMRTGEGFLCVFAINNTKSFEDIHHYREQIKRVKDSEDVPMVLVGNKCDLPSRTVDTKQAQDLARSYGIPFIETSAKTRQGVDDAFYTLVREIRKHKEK
- run description: SOS-catalyzed nucleotide exchange assay, KRAS WT (Procedure A)
- Type: biochemical
- experimental conditions: GNE
- Experimental: Procedure for SOS-Catalyzed Nucleotide Exchange Assay for KRAS-WT, G12C/D/V, G13D, HRAS, and NRAS (Procedure A) Recombinant KRAS-G12C protein used in this assay has an additional triple mutation (C51S/C80L/C118S). […] The time-resolved fluorescence resonance energy transfer (TR-FRET) signal is measured on an Envision (PerkinElmer) plate reader: Excitation filter=340 nm; emission1=495 nm; emission2=520 nm; dichroic mirror=D400/D505; delay time=100 ms. […]
property label: IC50

## Task Using the record for Nc1nc2c(-c3nccc4c3sc3nc(OC[C@@]56CCCN5C[C@H](F)C6)nc(N5C[C@H]6CC[C@@H](C5)N6)c34)ccc(F)c2s1 , state its measured IC50.
## Result > 11.1 µM

###

- subject of test: AsPC-1 cells (Homo sapiens, UniProt P01116, G12D)
- Construct: p-ERK/total ERK AlphaSureFire read-out
- Sequence (P01116 1-188 isoform P01116-2 G12D): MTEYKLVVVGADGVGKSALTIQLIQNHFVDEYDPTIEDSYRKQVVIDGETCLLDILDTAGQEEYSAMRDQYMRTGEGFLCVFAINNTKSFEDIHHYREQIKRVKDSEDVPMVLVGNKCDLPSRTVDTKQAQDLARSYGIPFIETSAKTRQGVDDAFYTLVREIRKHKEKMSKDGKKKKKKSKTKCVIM
- run description: Cellular phospho-ERK assay, AsPC-1 cells (KRAS G12D)
- experimental conditions: 2 hours, read-out: AsPC1 pERK IC50
pIC50: −log10 of the molar value.
Rule: t for pIC50 not less than 6, f for anything less.

Worked cases, answers included:
Clc1cc2[nH]ncc2c(-c2nccc3c2sc2nc(OCC45CCOC(CO4)C5)nc(N4C[C@H]5CC[C@@H](C4)N5)c23)c1C1CC1: f
Cc1cc2[nH]ncc2c(-c2nccc3c2sc2nc(OC[C@@]45CCCN4C[C@H](F)C5)nc(N4C5CNCC4C5)c23)c1C(F)(F)F: f

## Task Is reported pIC50 greater than or equal to 6 here: Cc1cc2[nH]ncc2c(-c2nccc3c2sc2nc(OCC4(C)CCCO4)nc(N4C[C@H]5CC[C@@H](C4)N5)c23)c1C(F)(F)F (some centres unmarked)
## Result f

## Task Is reported pIC50 greater than or equal to 6 here: Cc1cc2[nH]ncc2c(-c2nccc3c2sc2nc(OC[C@@]45CCCN4C[C@H](F)C5)nc(N4C[C@@H]5C[C@H]4CN5)c23)c1C(F)(F)F
## Result f

## Task Is reported pIC50 greater than or equal to 6 here: F[C@H]1CN2CCC[C@@]2(COc2nc(N3C[C@H]4CC[C@@H](C3)N4)c3c(n2)C2(CC2)c2c-3ccnc2-c2c(C3CC3)c(Cl)cc3[nH]ncc23)C1 (single isomer, unassigned)
## Result t

## Task Is reported pIC50 greater than or equal to 6 here: F[C@H]1CN2CCC[C@@]2(COc2nc(N3C[C@H]4CC[C@@H](C3)N4)c3c(n2)sc2c(-c4c(C5CC5)c(C(F)(F)F)cc5[nH]ncc45)nccc23)C1
## Result t

## Task Is reported pIC50 greater than or equal to 6 here: C#Cc1c(F)ccc2cc3[nH]ncc3c(-c3nccc4c3sc3nc(OC[C@]5(CN6CCC7(CCC7)CC6)CC5(F)F)nc(N5C[C@H]6CC[C@@H](C5)N6)c34)c12
## Result t

## Task Is reported pIC50 greater than or equal to 6 here: Cc1cc2[nH]ncc2c(-c2nccc3c2sc2nc(OCC4CS(=O)(=O)C4)nc(N4C[C@H]5CC[C@@H](C4)N5)c23)c1C(F)(F)F
## Result f

## Task Is reported pIC50 greater than or equal to 6 here: C#Cc1c(F)ccc2cc3[nH]ncc3c(-c3nccc4c3sc3nc(OCC5(C(F)(F)F)CCOCC5)nc(N5C[C@H]6CC[C@@H](C5)N6)c34)c12
## Result f

## Task Is reported pIC50 greater than or equal to 6 here: C#Cc1csc2cc3[nH]ncc3c(-c3nccc4c3sc3nc(OC[C@@]56CCCN5C[C@H](F)C6)nc(N5C[C@H]6CC[C@@H](C5)N6)c34)c12
## Result t

## Task Is reported pIC50 greater than or equal to 6 here: C#Cc1c(F)ccc2cc3[nH]ncc3c(-c3nccc4c3sc3nc(OC[C@]5(CN6CCN(C(C)=O)CC6)CC5(F)F)nc(N5C[C@H]6CC[C@@H](C5)N6)c34)c12
## Result f

## Task Is reported pIC50 greater than or equal to 6 here: CCc1c(F)ccc2cc3[nH]ncc3c(-c3nccc4c3sc3nc(OC[C@@]56CCCN5C[C@H](F)C6)nc(N5C[C@H]6CC[C@@H](C5)N6)c34)c12
## Result t

## Task Is reported pIC50 greater than or equal to 6 here: OC1C2CCCC1(COc1nc(N3C[C@H]4CC[C@@H](C3)N4)c3c(n1)sc1c(-c4c(C5CC5)c(Cl)cc5[nH]ncc45)nccc13)CC2 (some centres unmarked)
## Result f

## Task Is reported pIC50 greater than or equal to 6 here: C#Cc1c(F)ccc2cc3[nH]ncc3c(-c3nccc4c3sc3nc(OC[C@@]56CCCN5C/C(=C\F)C6)nc(N5C[C@@H]6C[C@H](O)[C@H](C5)N6)c34)c12
## Result t
